Measured inhibition, listed per entry for reference.
# ASSAYED_TARGET: Serine/threonine-protein kinase Nek6 (Homo sapiens) (UniProt Q9HC98)
# Sequence (Q9HC98 whole entry): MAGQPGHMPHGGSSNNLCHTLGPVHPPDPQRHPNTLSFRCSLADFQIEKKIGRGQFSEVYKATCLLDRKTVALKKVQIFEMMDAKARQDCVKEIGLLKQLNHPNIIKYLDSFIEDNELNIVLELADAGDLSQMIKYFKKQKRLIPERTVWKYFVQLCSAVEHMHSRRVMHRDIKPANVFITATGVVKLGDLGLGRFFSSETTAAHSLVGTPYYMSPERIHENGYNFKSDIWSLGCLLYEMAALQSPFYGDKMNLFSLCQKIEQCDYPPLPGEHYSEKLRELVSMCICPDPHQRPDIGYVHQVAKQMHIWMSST
# ASSAY_DETAILS: Competitive binding affinity to NEK6 (unknown origin) at 10 uM in presence of ATP relative to control
REPORTED_ENDPOINT: inhibition (%)

>>> endpoint_value("O=C([C@H]1CC[C@H](Nc2nccc(-n3nnc4ccccc43)n2)CC1)N1CCOCC1")
66
>>> endpoint_value("O[C@H]1CC[C@H](Nc2nccc(-n3nnc4ccccc43)n2)CC1")
73
>>> endpoint_value("O[C@H]1CC[C@H](Nc2nccc(-c3n[nH]c4ccccc34)n2)CC1")
77
